# TEST_SYSTEM: PI3Kδ (Homo sapiens (Human))
# PROCEDURE_SUMMARY: Activity of selected PI3K inhibitors, Ki (PI3Kδ)
# Type: biochemical
Readings of Ki for the listed compounds
Response body: numeric value in nM, unit text excluded.

# annotated cases, reported Ki shown
- COMPOUND: "Cc1cccc2nc(C(C)Nc3ncnc4[nH]cnc34)n(-c3ccccc3)c(=O)c12 (stereo not shown) [4b]"
  Ki [nM]: 5
- COMPOUND: "CC(c1nc2ccsc2c(=O)n1-c1ccccc1)n1cnc2c(N)ncnc21 (stereo not shown) [3d]"
  Ki [nM]: 40
- COMPOUND: "Cc1cccc2nc(C(C)n3cnc4c(N)ncnc43)n(-c3ccccc3)c(=O)c12 (stereo not shown) [4a]"
  Ki [nM]: 7

--- query ---
Query: Ki; subject: CC(Nc1ncnc2[nH]cnc12)c1nc2ccsc2c(=O)n1-c1ccccc1 (stereo not shown) [3e]
6

----------
Readings of Selectivity (α/δ) for the listed compounds
# TEST_SYSTEM: UniProt P42336
# Sequence (P42336 whole entry, species assumed): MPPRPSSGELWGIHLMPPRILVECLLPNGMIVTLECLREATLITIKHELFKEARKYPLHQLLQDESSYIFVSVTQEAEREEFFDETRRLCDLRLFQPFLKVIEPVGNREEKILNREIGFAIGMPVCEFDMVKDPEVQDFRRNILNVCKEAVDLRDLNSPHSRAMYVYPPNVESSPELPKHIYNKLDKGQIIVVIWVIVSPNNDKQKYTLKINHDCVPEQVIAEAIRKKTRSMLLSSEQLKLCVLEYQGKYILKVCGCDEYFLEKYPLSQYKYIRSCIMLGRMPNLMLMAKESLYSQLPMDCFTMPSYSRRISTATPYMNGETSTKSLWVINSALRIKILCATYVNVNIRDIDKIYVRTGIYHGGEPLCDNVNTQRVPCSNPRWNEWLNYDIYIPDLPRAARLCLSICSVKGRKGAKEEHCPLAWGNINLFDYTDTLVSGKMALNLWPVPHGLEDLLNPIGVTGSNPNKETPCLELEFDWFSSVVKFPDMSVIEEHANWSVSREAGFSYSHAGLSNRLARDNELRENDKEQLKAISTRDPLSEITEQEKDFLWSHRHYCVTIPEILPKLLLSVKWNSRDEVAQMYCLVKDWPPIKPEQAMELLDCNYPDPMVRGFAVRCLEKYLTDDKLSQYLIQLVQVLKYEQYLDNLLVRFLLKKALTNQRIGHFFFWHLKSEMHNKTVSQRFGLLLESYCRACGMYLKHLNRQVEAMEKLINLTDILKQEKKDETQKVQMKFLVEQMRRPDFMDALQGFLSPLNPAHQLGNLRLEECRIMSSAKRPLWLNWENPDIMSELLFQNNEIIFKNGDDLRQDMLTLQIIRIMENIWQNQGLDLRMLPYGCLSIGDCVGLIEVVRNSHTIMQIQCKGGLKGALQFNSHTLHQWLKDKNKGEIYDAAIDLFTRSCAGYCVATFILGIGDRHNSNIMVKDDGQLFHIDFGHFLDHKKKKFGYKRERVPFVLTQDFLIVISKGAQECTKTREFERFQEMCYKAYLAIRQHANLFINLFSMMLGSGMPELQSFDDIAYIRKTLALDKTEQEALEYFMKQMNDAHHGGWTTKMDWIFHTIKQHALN
# Sequence (P27986 whole entry partner, species assumed): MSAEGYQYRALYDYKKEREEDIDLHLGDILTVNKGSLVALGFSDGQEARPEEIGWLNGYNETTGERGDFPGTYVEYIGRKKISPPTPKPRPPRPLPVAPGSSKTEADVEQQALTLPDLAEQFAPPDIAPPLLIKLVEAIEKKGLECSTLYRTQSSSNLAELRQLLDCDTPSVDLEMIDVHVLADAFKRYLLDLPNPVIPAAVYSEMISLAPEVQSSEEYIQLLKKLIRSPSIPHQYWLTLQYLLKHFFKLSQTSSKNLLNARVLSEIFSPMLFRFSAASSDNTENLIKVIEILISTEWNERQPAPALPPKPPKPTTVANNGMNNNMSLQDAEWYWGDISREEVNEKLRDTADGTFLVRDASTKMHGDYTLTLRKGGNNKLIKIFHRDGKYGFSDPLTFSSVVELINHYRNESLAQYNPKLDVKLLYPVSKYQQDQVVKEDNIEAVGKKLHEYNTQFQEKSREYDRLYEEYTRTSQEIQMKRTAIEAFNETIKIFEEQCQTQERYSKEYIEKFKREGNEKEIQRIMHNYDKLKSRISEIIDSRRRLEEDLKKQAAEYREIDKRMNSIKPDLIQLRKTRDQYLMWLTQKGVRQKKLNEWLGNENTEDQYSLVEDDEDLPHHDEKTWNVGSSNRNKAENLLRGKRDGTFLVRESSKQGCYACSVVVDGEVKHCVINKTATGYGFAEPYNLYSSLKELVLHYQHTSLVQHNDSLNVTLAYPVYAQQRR
# PROCEDURE_SUMMARY: Selectivity of selected PI3K inhibitors (α/δ)
# Type: biochemical
# PROTOCOL_CONDITIONS: ratio PI3Kα relative to PI3Kδ

# annotated cases, reported Selectivity (α/δ) shown
- COMPOUND: "Cc1cccc2nc(C(C)n3cnc4c(N)ncnc43)n(-c3ccccc3)c(=O)c12 (stereo not shown) [4a]"
  READOUT_VALUE: 2963
- COMPOUND: "Cc1cccc2nc(C(C)Nc3ncnc4[nH]cnc34)n(-c3ccccc3)c(=O)c12 (stereo not shown) [4b]"
  READOUT_VALUE: 132
- COMPOUND: "CC(c1nc2ccsc2c(=O)n1-c1ccccc1)n1cnc2c(N)ncnc21 (stereo not shown) [3d]"
  READOUT_VALUE: 1447

--- query ---
Query: Selectivity (α/δ); subject: CC(Nc1ncnc2[nH]cnc12)c1nc2ccsc2c(=O)n1-c1ccccc1 (stereo not shown) [3e]
528

----------
# TEST_SYSTEM: UniProt P48736
# Sequence (P48736 whole entry, species assumed): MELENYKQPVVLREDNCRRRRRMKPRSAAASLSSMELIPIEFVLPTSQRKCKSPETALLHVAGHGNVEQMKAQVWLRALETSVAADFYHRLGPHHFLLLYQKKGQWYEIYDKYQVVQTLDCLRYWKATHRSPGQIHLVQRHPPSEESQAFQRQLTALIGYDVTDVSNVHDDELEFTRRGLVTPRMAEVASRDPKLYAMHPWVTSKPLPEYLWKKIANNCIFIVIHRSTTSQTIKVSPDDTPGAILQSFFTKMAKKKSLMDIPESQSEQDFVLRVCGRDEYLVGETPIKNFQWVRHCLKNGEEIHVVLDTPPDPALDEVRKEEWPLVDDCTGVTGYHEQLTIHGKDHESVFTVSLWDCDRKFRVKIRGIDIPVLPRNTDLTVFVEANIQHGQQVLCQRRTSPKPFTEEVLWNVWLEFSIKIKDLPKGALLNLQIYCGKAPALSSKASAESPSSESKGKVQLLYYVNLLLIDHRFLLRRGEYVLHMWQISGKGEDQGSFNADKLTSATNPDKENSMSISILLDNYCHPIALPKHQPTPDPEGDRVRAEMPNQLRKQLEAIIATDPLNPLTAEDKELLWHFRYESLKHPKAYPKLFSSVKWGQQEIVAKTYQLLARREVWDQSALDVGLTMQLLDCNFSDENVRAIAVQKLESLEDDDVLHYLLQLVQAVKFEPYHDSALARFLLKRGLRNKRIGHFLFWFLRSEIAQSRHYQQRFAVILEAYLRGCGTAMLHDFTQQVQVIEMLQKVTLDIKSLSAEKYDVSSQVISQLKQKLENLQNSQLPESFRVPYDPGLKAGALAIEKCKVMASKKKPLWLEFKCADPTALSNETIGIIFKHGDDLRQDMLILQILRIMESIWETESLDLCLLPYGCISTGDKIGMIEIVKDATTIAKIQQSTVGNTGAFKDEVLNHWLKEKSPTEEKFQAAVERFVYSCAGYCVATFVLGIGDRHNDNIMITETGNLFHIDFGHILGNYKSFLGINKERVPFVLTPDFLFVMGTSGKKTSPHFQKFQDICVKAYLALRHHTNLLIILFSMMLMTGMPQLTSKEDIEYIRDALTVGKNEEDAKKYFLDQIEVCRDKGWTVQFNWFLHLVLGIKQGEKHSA
# PROCEDURE_SUMMARY: Selectivity of selected PI3K inhibitors (γ/δ)
# Type: biochemical
# PROTOCOL_CONDITIONS: ratio PI3Kγ relative to PI3Kδ
Readings of Selectivity (γ/δ) for the listed molecules
Lab note: jot the number down without any unit.

- MOLECULE: "CC(c1nc2ccsc2c(=O)n1-c1ccccc1)n1cnc2c(N)ncnc21 (stereo not shown)"
  TEST_SYSTEM: "UniProt P48736"
  Selectivity (γ/δ): 187

Query: Selectivity (γ/δ); subject: CC(Nc1ncnc2[nH]cnc12)c1nc2ccsc2c(=O)n1-c1ccccc1 (stereo not shown)
28

Query: Selectivity (γ/δ); subject: Cc1cccc2nc(C(C)n3cnc4c(N)ncnc43)n(-c3ccccc3)c(=O)c12 (stereo not shown)
61

Query: Selectivity (γ/δ); subject: Cc1cccc2nc(C(C)Nc3ncnc4[nH]cnc34)n(-c3ccccc3)c(=O)c12 (stereo not shown)
12

----------
Readings of Selectivity (β/δ) for the listed compounds
# TEST_SYSTEM: PI3Kβ (Homo sapiens (Human), UniProt P42338)
# Sequence (P42338 whole entry, species assumed): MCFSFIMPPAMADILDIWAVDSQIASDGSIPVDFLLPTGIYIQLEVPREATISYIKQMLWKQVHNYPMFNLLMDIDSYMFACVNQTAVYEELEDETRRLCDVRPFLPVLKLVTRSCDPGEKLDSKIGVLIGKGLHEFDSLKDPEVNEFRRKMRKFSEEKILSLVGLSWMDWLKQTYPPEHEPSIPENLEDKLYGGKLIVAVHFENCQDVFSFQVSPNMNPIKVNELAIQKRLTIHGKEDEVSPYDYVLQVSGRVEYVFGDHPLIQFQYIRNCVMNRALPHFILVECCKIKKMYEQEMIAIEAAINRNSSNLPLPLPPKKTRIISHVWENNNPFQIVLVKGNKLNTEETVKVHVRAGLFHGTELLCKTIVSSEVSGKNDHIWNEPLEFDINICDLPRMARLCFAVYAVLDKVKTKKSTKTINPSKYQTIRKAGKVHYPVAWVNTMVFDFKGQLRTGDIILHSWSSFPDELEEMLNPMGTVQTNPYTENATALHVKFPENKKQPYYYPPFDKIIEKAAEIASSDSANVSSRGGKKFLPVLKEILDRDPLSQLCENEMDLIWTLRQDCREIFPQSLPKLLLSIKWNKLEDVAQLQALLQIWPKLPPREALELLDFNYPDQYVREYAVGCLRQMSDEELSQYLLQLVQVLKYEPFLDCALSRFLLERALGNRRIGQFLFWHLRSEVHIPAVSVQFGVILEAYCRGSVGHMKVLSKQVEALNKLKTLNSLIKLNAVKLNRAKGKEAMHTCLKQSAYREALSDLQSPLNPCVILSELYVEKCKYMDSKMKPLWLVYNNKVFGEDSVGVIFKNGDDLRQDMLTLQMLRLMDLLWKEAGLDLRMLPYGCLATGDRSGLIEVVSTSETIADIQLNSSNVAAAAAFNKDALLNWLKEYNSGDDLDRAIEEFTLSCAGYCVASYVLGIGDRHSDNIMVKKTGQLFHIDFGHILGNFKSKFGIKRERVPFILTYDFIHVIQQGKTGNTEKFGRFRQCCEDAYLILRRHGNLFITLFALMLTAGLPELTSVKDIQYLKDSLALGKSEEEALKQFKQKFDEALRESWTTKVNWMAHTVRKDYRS
# Sequence (P27986 whole entry partner, species assumed): as the sequence (P27986 whole entry partner, species assumed) above
# PROCEDURE_SUMMARY: Selectivity of selected PI3K inhibitors (β/δ)
# Type: biochemical
# PROTOCOL_CONDITIONS: ratio PI3Kβ relative to PI3Kδ
Lab note: jot the number down without any unit.

Identify the measured Selectivity (β/δ) of CC(c1nc2ccsc2c(=O)n1-c1ccccc1)n1cnc2c(N)ncnc21 (stereo not shown) for PI3Kβ (Homo sapiens (Human), UniProt P42338).
126

Identify the measured Selectivity (β/δ) of Cc1cccc2nc(C(C)Nc3ncnc4[nH]cnc34)n(-c3ccccc3)c(=O)c12 (stereo not shown) for PI3Kβ (Homo sapiens (Human), UniProt P42338).
29

Identify the measured Selectivity (β/δ) of Cc1cccc2nc(C(C)n3cnc4c(N)ncnc43)n(-c3ccccc3)c(=O)c12 (stereo not shown) for PI3Kβ (Homo sapiens (Human), UniProt P42338).
119

Identify the measured Selectivity (β/δ) of CC(Nc1ncnc2[nH]cnc12)c1nc2ccsc2c(=O)n1-c1ccccc1 (stereo not shown) for PI3Kβ (Homo sapiens (Human), UniProt P42338).
123
